- System Under Test: Neuronal acetylcholine receptor subunit alpha-7 (Rattus norvegicus)
- Sequence (Q05941 whole entry): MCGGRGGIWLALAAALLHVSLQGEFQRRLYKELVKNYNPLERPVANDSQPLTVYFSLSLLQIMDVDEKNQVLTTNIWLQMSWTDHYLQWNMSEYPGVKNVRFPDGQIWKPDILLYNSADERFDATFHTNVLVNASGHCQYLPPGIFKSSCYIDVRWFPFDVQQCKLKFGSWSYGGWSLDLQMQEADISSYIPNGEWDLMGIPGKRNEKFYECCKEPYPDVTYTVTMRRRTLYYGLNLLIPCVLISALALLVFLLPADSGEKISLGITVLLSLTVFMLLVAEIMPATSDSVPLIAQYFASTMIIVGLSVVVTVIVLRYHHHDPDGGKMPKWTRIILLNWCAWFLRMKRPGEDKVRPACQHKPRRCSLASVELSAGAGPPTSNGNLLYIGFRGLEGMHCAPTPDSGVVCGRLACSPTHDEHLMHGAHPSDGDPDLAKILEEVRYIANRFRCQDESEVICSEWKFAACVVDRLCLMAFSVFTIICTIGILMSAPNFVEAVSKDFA
- Assay Name: Displacement of [3H]iodo-MLA from alpha7 nAChR in rat cerebral cortex after 2 hrs by scintillation counting
pKi: −log10 of the molar value.
Some compounds, each annotated with its measured pKi.
Measure Name: pKi

>>> number("Clc1cccc(-c2cc([C@H]3C[C@@H]4CC[C@H]3N4)cnc2Cl)c1")
7.52
>>> number("Clc1ccc(-c2cc([C@H]3C[C@@H]4CC[C@H]3N4)cnc2Cl)cc1")
6.68
>>> number("Nc1cccc(-c2cc([C@H]3C[C@@H]4CC[C@H]3N4)cnc2Cl)c1")
6.59
>>> number("Nc1ccc(-c2cc([C@H]3C[C@@H]4CC[C@H]3N4)cnc2Cl)cc1")
6.63
>>> number("O=[N+]([O-])c1ccc(-c2cc([C@H]3C[C@@H]4CC[C@H]3N4)cnc2Cl)cc1")
6.60
>>> number("COc1ccc(-c2cc([C@H]3C[C@@H]4CC[C@H]3N4)cnc2Cl)cc1")
6.76
>>> number("COc1cccc(-c2cc([C@H]3C[C@@H]4CC[C@H]3N4)cnc2Cl)c1")
6.25
>>> number("Clc1ncc([C@H]2C[C@@H]3CC[C@H]2N3)cc1-c1ccccc1")
6.59
>>> number("Fc1ccc(-c2cc([C@H]3C[C@@H]4CC[C@H]3N4)cnc2Cl)cc1")
6.51
>>> number("O=[N+]([O-])c1cccc(-c2cc([C@H]3C[C@@H]4CC[C@H]3N4)cnc2Cl)c1")
6.64
>>> number("CN(C)c1cccc(-c2cc([C@H]3C[C@@H]4CC[C@H]3N4)cnc2Cl)c1")
5.96
>>> number("Clc1ncc([C@H]2C[C@@H]3CC[C@H]2N3)cc1-c1cccc(Br)c1")
7.07
>>> number("Fc1cccc(-c2cc([C@H]3C[C@@H]4CC[C@H]3N4)cnc2Cl)c1")
6.60

Data origin: ChEMBL document CHEMBL1154863
